All figures here come from ChEMBL document CHEMBL2040761.

pIC50: −log10 of the molar value.
In what follows, each item is paired with its pIC50 for Cholinesterase (Equus caballus, UniProt P81908).
assay-readout: pIC50

compound	assay-readout	measurement
COc1cc2c(cc1OCCCCN1CCCCC1)C(=O)/C(=C\c1ccncc1)C2	pIC50	4.86
COc1cc2c(cc1OCCCCCN1CCCCC1)C(=O)CC2	pIC50	3.94
COc1cc2c(cc1OCCCCCN1CCCCC1)C(=O)/C(=C\c1ccncc1)C2	pIC50	5.04
CCN(CC)CCCCCCOc1cc2c(cc1OC)C/C(=C/c1ccncc1)C2=O	pIC50	4.87
COc1cc2c(cc1OCCN1CCCCC1)C(=O)/C(=C\c1ccccn1)C2	pIC50	5.13
COc1cc2c(cc1OCCN1CCCCC1)C(=O)C(Cc1ccccc1)C2 (configuration not stated)	pIC50	5.04
COc1cc2c(cc1OCCN1CCCCC1)C(=O)/C(=C\c1ccncc1)C2	pIC50	5.02
